- Test system: NCI-H522 lung
- method_notes: NCI-60 one-dose screen, 48 h
- experimental_conditions: 10 µM unless noted
About 83,000 compounds went through this panel and 20% of them were active in at least one assay; those are over-represented in the sample as a whole. Active and inactive are the calls of the source. Rule for the calls: active = growth percent below 10; inactive = the rest.
Classes used: active, inactive

>  <molecule>
O=C1c2ccccc2CCC12OC2c1cn(-c2ccccc2)nc1-c1ccc(Cl)cc1 (stereo not drawn)

>  <label_class>
inactive

$$$$
>  <molecule>
CCOC(=O)c1nc2c3ccccc3ccn2c1C(=O)OCC

>  <label_class>
inactive

$$$$
>  <molecule>
O=S(=O)(NCCCNc1nccc(-c2c(-c3cccc(F)c3)nc3sccn23)n1)c1cccc(F)c1

>  <label_class>
inactive

$$$$
>  <molecule>
COC(=O)N[C@H]1CCc2c(Cl)c(OC)c(OC)c(OC)c2-c2ccc(SC)c(=O)cc21

>  <label_class>
inactive

$$$$
>  <molecule>
CCCCCC(=O)Oc1ccc(/C(=C(/C)Cc2ccc(OC)cc2)c2ccc(OCCCN(C)C)cc2)cc1

>  <label_class>
inactive

$$$$
>  <molecule>
NS(=O)(=O)c1ccc(CCN2C(=O)c3cc(Cl)c(Cl)cc3C2=O)cc1

>  <label_class>
inactive

$$$$
>  <molecule>
O=C(CCN1CCCC1)Nc1ccc2c(Nc3ccc(F)cc3)c3ccccc3nc2c1

>  <label_class>
active

$$$$
>  <molecule>
CN(C)CCC(=O)c1ccc([N+](=O)[O-])cc1

>  <label_class>
active

$$$$
>  <molecule>
CCN(CC)CCCC(C)Nc1cc(O)cc2cccnc12 (stereo not drawn)

>  <label_class>
inactive

$$$$
>  <molecule>
Cc1cc2c(C(=O)NCC#N)cccc2n1-c1nc2c(c(NCc3ccccc3)n1)CCCC2

>  <label_class>
active

$$$$
>  <molecule>
O=S(=O)(NCCNc1nccc(-c2c(-c3cccc(O)c3)nc3occn23)n1)c1ccc(C(F)(F)F)cc1

>  <label_class>
inactive

$$$$
>  <molecule>
Cc1cccc(C)c1N=c1oc2ccc(Cl)cc2nc1-c1ccccc1O

>  <label_class>
inactive

$$$$
>  <molecule>
C=C1C(=O)O[C@H]2[C@H]1CC/C(COC(=O)NCc1c[nH]c3ccc(F)cc13)=C\CC[C@@]1(C)O[C@@H]21

>  <label_class>
active

$$$$
>  <molecule>
COc1ccc(NC(=O)c2cc(NCc3cc(O)ccc3O)ccc2O)cc1

>  <label_class>
active

$$$$
>  <molecule>
CC(=O)OC[C@]12CC[C@@H](C(=O)CBr)[C@@H]1[C@H]1CC[C@@H]3[C@@]4(C)CC[C@H](OC(C)=O)C(C)(C)[C@@H]4CC[C@@]3(C)[C@]1(C)CC2

>  <label_class>
active

$$$$
>  <molecule>
CCOC(=O)c1cc(C(=O)c2cc(OC)cc(OC)c2)n2ccc3ccccc3c12

>  <label_class>
inactive

$$$$
>  <molecule>
C=C(C)[C@@H]1CC[C@]2(C(=O)N3CCN(C)CC3)CC[C@]3(C)[C@H](CC[C@@H]4[C@@]5(C)C/C(=C/c6cccnc6)C(=O)C(C)(C)[C@@H]5CC[C@]43C)[C@@H]12

>  <label_class>
inactive

$$$$
>  <molecule>
Cn1ccnc1C(=O)/C=C/c1ccc(CC(=O)Nc2ccc(Cl)cc2)cc1

>  <label_class>
active

$$$$

Where these numbers come from: PubChem BioAssay (NCI)
